Kindly state inhibition at 10 µM for each of the entries shown.
- system: hNaV1.2 (SCN2A) (Homo sapiens, UniProt Q99250)
- Construct: expressed in transfected cells
- Sequence (Q99250 whole entry): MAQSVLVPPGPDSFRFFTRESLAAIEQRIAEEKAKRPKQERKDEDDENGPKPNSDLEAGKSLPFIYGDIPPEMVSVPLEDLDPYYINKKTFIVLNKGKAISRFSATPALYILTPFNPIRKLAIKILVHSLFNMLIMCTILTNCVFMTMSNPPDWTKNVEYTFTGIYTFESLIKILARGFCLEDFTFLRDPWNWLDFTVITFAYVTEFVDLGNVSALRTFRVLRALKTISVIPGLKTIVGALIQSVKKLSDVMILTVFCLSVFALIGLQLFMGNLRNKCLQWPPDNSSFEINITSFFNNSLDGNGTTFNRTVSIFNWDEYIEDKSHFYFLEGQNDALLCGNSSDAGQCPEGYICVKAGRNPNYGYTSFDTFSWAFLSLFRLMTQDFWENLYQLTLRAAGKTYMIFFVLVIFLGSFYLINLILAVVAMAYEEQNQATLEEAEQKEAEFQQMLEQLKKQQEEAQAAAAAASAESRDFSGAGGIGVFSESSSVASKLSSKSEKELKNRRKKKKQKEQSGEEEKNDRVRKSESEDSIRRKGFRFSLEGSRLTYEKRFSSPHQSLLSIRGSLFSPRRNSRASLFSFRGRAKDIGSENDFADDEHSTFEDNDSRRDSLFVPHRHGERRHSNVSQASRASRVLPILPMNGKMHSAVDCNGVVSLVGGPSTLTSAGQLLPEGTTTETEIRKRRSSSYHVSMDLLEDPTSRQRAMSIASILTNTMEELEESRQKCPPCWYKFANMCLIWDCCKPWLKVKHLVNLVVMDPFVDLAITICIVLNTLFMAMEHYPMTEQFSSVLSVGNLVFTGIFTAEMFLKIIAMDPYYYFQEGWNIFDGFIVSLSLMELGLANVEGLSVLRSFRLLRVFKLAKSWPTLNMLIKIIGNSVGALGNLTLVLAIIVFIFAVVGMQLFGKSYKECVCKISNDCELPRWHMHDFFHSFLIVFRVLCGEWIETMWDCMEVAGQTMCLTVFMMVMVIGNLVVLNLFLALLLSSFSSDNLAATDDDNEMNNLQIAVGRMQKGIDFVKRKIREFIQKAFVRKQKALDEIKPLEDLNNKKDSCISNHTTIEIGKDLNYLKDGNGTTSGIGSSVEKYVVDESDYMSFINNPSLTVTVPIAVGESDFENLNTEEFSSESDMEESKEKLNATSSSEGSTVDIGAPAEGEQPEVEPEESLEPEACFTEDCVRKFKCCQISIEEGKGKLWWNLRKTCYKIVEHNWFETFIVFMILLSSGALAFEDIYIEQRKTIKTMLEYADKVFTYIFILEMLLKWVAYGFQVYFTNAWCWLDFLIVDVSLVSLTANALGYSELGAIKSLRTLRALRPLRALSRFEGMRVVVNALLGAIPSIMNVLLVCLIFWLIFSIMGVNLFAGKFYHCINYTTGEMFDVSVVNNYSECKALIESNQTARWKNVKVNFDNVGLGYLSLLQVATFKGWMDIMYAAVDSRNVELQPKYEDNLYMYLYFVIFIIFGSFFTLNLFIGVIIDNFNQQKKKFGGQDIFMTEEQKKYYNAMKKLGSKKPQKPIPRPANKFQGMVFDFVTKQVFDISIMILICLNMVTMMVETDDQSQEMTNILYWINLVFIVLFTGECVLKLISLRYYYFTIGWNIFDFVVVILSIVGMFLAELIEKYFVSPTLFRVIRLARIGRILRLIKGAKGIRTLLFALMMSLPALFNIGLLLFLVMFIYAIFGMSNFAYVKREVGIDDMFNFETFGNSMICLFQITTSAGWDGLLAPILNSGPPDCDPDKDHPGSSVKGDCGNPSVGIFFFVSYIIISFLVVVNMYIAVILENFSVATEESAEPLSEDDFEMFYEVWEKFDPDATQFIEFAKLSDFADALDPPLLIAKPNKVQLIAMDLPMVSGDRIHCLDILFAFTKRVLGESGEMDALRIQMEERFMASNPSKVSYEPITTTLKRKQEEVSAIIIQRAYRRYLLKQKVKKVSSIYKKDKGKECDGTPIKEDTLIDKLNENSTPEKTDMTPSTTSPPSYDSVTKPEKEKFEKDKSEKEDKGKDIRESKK
- Sequence (Q07699 19-218 partner): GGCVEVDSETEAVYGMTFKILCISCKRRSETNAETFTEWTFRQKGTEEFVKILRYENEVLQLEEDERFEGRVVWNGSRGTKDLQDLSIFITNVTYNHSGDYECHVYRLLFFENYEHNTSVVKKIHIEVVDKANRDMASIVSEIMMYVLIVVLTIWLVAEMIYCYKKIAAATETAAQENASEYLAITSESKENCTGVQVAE
- Sequence (O60939 30-215 partner): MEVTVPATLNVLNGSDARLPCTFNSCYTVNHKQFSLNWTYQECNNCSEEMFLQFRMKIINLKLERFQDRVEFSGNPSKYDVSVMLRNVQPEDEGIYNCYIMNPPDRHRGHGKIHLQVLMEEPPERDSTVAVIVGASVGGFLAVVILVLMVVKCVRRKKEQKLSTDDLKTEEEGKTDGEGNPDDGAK
- measurement notes: Use-dependent inhibition of the CNS Nav1.2 sodium channel
- Format: cell-based
- applied conditions: use-dependent block, 25 Hz, pulse 20, read-out: Nav1.2 UDB 25 Hz 10 uM
Give bare numbers, in %.

Consider the worked cases shown below.
>  <smiles input>
CC(C)NC(=O)COc1noc2ccc(-c3ccc(OC(F)(F)F)cc3)cc12

>  <system>
hNaV1.2 (SCN2A) (Homo sapiens, UniProt Q99250)

>  <unit abbreviation>
%

>  <reported value>
29.7

$$$$
>  <smiles input>
CC(=O)N1CC(COc2noc3ccc(-c4ccc(OC(F)(F)F)cc4)cc23)C1

>  <system>
hNaV1.2 (SCN2A) (Homo sapiens, UniProt Q99250)

>  <unit abbreviation>
%

>  <reported value>
67.3

$$$$
>  <smiles input>
Cc1nnc(COc2noc3ccc(-c4ccc(OC(F)(F)F)cc4)cc23)s1

>  <system>
hNaV1.2 (SCN2A) (Homo sapiens, UniProt Q99250)

>  <unit abbreviation>
%

>  <reported value>
30.5

$$$$

Shifting focus to the molecule that follows.
What measured inhibition at 10 µM goes with `CC(=O)N1CCOC[C@@H]1COc1noc2ccc(-c3ccc(OC(F)(F)F)cc3)cc12` ?
62.3

----------
- system: UniProtKB P35498
- measurement notes: Use-dependent inhibition of the CNS Nav1.1 sodium channel
- Type: cell-based
- applied conditions: use-dependent block, 25 Hz, pulse 20, read-out: Nav1.1 UDB 25 Hz 10 uM
metric: inhibition at 10 µM (%)
Numbers only, in %.

Consider the worked cases shown below.
>  <smiles input>
O=C1CCCN1CCOc1noc2c(F)cc(-c3ccc(OC(F)(F)F)cc3)cc12

>  <inhibition at 10 µM / %>
19.8

$$$$
>  <smiles input>
FC(F)(F)Oc1ccc(-c2ccc3onc(-n4cnc(C(F)(F)F)c4)c3c2)cc1

>  <inhibition at 10 µM / %>
81.4

$$$$
>  <smiles input>
FC(F)(F)Oc1ccc(-c2ccc3onc(OCCn4cncn4)c3c2)cc1

>  <inhibition at 10 µM / %>
43.5

$$$$

Required: inhibition at 10 µM, one value per compound below.
1. Cc1nc(C)n(CCOc2noc3ccc(-c4ccc(OC(F)(F)F)cc4)cc23)n1
2. N#CCOc1noc2ccc(-c3ccc(OC(F)(F)F)cc3)cc12
3. CN(C)c1noc2ccc(-c3ccc(OC(F)(F)F)cc3)cc12
4. FC(F)(F)Oc1ccc(-c2ccc3onc(OCCn4ccnc4)c3c2)cc1

1: 27.2; 2: 8.5; 3: 22.1; 4: 79.8

----------
- measurement notes: Plasma concentration in the rabbit ischemia study
- Format: in vivo, New Zealand rabbits
- applied conditions: iv infusion targeted to 1 uM plasma
Cut-off 1000 nM on Plasma concentration: below means rule met, at or above means rule not met.

>  <compound>
O=C1CCCN1CCOc1noc2ccc(-c3ccc(OC(F)(F)F)cc3)cc12 [Example 59]

>  <answer label>
rule not met

$$$$
>  <compound>
FC(F)(F)Oc1ccc(-c2ccc3onc(OCCn4cncn4)c3c2)cc1 [Example 58]

>  <answer label>
rule not met

$$$$
>  <compound>
Cc1ccnc(COc2noc3ccc(-c4ccc(OC(F)(F)F)cc4)cc23)n1 [Example 5]

>  <answer label>
rule not met

$$$$
>  <compound>
FC(F)(F)COc1ccc(-c2ccc3onc(OCc4ncccn4)c3c2)cn1 [Example 21]

>  <answer label>
rule met

$$$$

Please examine the following record next.
Problem: For the compound Fc1cc(C(F)(F)F)ccc1-c1ccc2onc(OCc3ncccn3)c2c1 [Example 6] , is Plasma concentration under 1000 nM?
rule met

----------
- system: hNaV1.2 (SCN2A) (Homo sapiens, UniProt Q99250)
- Construct: expressed in transfected cells
- measurement notes: Use-dependent inhibition of the CNS Nav1.2 sodium channel
- Format: cell-based
- applied conditions: use-dependent block, 25 Hz, pulse 20, read-out: Nav1.2 UDB 25 Hz 10 uM
Rule: inhibition at 10 µM of 40% or more gives y; anything lower gives n.

Examples from the recorded data:
>  <compound>
Fc1cc(C(F)(F)F)ccc1-c1cc2c(OCc3ncccn3)noc2cc1F [Example 33]

>  <answer label>
n

$$$$
>  <compound>
Cc1cn(-c2noc3ccc(-c4ccc(OC(F)(F)F)cc4)cc23)cn1 [Example 139]

>  <answer label>
n

$$$$
>  <compound>
Fc1cccnc1COc1noc2ccc(-c3ccc(OC(F)(F)F)cc3)cc12 [Example 94]

>  <answer label>
n

$$$$

Test whether the compound FC(F)(F)Oc1ccc(-c2ccc3onc(-n4cncn4)c3c2)cc1 [Example 136] records inhibition at 10 µM of 40% or higher.
n

Test whether the compound CC(C)[C@@H](COc1noc2ccc(-c3ccc(OC(F)(F)F)cc3)cc12)N1CCCC1=O [Example 120] records inhibition at 10 µM of 40% or higher.
y

Test whether the compound Cc1cccnc1COc1noc2ccc(-c3ccc(OC(F)(F)F)cc3)cc12 [Example 93] records inhibition at 10 µM of 40% or higher.
n

Test whether the compound FC(F)(F)Oc1ccc(-c2ccc3onc(NCc4ncco4)c3c2)cc1 [Example 156] records inhibition at 10 µM of 40% or higher.
n

Test whether the compound Fc1cc(-c2ccc(OC(F)(F)F)cc2)cc2c(OCc3nnc(C4CC4)o3)noc12 [Example 104] records inhibition at 10 µM of 40% or higher.
y

Test whether the compound FC(F)(F)Oc1ccc(-c2ccc3onc(OCc4cn[nH]c4)c3c2)cc1 [Example 45] records inhibition at 10 µM of 40% or higher.
y

----------
- system: hNaV1.2 (SCN2A) (Homo sapiens, UniProt Q99250)
- Construct: expressed in transfected cells
- measurement notes: Use-dependent inhibition of the CNS Nav1.2 sodium channel
- Type: cell-based
- applied conditions: use-dependent block, 25 Hz, pulse 20, read-out: Nav1.2 UDB 25 Hz 10 uM
metric: inhibition at 10 µM (%)
Give bare numbers, in %.

Consider the worked cases shown below.
>  <compound>
FC(F)(F)Oc1ccc(-c2ccc3onc(OC[C@@H]4COCCN4)c3c2)cc1 [Example 113]

>  <metric>
inhibition at 10 µM

>  <reported value>
91.2

$$$$
>  <compound>
O=C1CCCN1CCNc1noc2ccc(-c3ccc(OC(F)(F)F)cc3)cc12 [Example 135]

>  <metric>
inhibition at 10 µM

>  <reported value>
76.5

$$$$
>  <compound>
Cn1cncc1COc1noc2ccc(-c3ccc(OC(F)(F)F)cc3)cc12 [Example 50]

>  <metric>
inhibition at 10 µM

>  <reported value>
27.3

$$$$
>  <compound>
OCC1(COc2noc3ccc(-c4ccc(OC(F)(F)F)cc4)cc23)COC1 [Example 97]

>  <metric>
inhibition at 10 µM

>  <reported value>
34.3

$$$$
>  <compound>
FC(F)(F)Oc1ccc(-c2ccc3onc(-n4cnc(C(F)(F)F)c4)c3c2)cc1 [Example 145]

>  <metric>
inhibition at 10 µM

>  <reported value>
75.8

$$$$
>  <compound>
FC(F)(F)Oc1ccc(-c2ccc3onc(OCCN4CCOCC4)c3c2)cc1 [Example 78]

>  <metric>
inhibition at 10 µM

>  <reported value>
32.8

$$$$

What measured inhibition at 10 µM goes with CN1CCN(c2noc3ccc(-c4ccc(OC(F)(F)F)cc4)cc23)CC1 [Example 127] ?
76.5

----------
- system: hNav1.3 (SCN3A) (Homo sapiens, UniProt Q9NY46)
- Construct: expressed in transfected cells
- Sequence (Q9NY46 1-1951 isoform Q9NY46-2): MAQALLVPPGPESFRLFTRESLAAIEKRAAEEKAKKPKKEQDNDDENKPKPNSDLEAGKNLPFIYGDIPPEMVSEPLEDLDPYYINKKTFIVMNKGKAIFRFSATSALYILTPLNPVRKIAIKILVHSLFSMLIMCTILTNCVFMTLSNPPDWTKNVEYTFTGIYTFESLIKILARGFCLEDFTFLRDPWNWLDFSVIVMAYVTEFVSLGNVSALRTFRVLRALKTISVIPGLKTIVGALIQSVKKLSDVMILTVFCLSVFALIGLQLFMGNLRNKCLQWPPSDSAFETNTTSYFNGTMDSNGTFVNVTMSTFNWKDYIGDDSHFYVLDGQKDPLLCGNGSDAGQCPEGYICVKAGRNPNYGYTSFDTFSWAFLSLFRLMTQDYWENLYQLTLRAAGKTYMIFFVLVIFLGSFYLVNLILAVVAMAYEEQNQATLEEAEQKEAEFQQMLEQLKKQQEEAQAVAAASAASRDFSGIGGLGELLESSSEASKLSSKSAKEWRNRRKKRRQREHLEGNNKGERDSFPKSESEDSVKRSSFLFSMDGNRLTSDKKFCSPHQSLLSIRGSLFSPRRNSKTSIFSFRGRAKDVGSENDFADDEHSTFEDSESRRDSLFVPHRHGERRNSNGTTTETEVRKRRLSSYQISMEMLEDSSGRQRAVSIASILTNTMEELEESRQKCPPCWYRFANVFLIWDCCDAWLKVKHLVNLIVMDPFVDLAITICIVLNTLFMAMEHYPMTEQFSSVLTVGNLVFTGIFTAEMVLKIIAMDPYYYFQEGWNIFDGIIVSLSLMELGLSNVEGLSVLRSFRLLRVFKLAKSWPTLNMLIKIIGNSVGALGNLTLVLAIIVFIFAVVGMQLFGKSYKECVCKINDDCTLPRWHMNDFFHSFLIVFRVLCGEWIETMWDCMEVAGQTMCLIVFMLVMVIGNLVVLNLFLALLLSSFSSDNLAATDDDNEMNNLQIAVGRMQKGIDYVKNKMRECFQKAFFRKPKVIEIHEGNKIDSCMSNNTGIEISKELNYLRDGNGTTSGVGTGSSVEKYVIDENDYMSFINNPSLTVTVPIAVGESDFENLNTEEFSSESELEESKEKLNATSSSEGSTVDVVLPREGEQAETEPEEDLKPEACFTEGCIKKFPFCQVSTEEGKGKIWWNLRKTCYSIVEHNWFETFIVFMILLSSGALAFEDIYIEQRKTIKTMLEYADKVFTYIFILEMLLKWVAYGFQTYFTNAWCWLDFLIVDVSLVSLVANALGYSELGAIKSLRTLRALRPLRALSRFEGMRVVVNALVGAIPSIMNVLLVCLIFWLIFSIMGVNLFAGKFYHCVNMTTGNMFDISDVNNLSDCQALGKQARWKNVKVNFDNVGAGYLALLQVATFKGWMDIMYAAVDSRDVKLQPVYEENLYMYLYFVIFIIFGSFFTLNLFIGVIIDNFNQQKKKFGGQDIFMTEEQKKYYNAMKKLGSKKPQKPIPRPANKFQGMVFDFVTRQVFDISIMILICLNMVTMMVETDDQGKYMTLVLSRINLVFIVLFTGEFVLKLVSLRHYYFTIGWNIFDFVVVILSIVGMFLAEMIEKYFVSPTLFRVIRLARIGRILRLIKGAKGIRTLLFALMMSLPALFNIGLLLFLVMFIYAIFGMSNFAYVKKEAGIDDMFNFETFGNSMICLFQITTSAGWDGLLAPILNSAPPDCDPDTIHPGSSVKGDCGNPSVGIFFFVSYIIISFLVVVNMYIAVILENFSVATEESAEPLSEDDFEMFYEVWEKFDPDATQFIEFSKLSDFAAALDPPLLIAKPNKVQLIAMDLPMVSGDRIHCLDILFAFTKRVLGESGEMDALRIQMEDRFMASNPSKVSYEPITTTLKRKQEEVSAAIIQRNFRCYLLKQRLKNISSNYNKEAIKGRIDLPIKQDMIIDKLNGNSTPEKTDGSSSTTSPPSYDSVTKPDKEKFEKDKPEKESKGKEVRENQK
- Sequence (Q07699 19-218 partner): as the sequence (Q07699 19-218 partner) above
- Sequence (O60939 30-215 partner): as the sequence (O60939 30-215 partner) above
- measurement notes: Voltage-dependent inhibition of the Nav1.3 sodium channel
- Assay type: cell-based
- applied conditions: voltage-dependent block of peak current, read-out: Nav 1.3-VDB 1 uM
Rule: inhibition at 1 µM of 10% or more gives True; anything lower gives False.

>  <molecule>
Cc1cc(OC(F)(F)F)ccc1-c1cc2c(OCc3ncccn3)noc2cc1C [Example 29]

>  <answer label>
True

$$$$
>  <molecule>
FC1(F)Oc2ccc(-c3ccc4onc(OCc5ncccn5)c4c3)cc2O1 [Example 30]

>  <answer label>
True

$$$$
>  <molecule>
COc1cc(OC(F)(F)F)ccc1-c1ccc2onc(OCc3ncccn3)c2c1 [Example 4]

>  <answer label>
True

$$$$
>  <molecule>
Fc1cc(C(F)(F)F)ccc1-c1ccc2onc(OCc3ncccn3)c2c1 [Example 6]

>  <answer label>
False

$$$$
>  <molecule>
COc1cc(-c2ccc(OC(F)(F)F)cc2)cc2c(OCc3ncccn3)noc12 [Example 22]

>  <answer label>
True

$$$$

Test whether the molecule O=C1CCCN1CCOc1noc2ccc(-c3ccc(OC(F)(F)F)cc3)cc12 [Example 59] records inhibition at 1 µM of 10% or higher.
True

Test whether the molecule O=C1CC[C@H](COc2noc3ccc(-c4ccc(OC(F)(F)F)cc4)cc23)N1 [Example 61] records inhibition at 1 µM of 10% or higher.
False

Test whether the molecule Cc1cc(-c2ccc3onc(OCc4ncccn4)c3c2)ccc1OC(F)(F)F [Example 7] records inhibition at 1 µM of 10% or higher.
False

Test whether the molecule COc1cc(-c2ccc(C(F)(F)F)cc2F)cc2c(OCc3ncccn3)noc12 [Example 24] records inhibition at 1 µM of 10% or higher.
False

Data credit: patent US9416115B2
